system: HS 578T breast; experiment: NCI tumour cell line growth inhibition, 48 h; in the data active = GI50 below about 0.43 µM; inactive = the rest
Give one outcome, nothing more. List: TRUE (active), FALSE (inactive)

[in] Recorded test outcome, item Cn1ncnc1C1c2n[nH]c(=O)c3cc(F)cc(c23)NC1c1ccc(F)cc1 (stereo not given)
[out] FALSE

[in] Recorded test outcome, item Nc1ccccc1C#C/C=C\C#Cc1ccccc1F
[out] FALSE

[in] Recorded test outcome, item O=C1c2ccn(CCCCN(CCO)CCO)c2C(=O)c2c1c(O)c1ccccc1c2O
[out] FALSE

[in] Recorded test outcome, item COc1ccc2c(c1)C=C1CSCC3=Cc4cc(OC)ccc4OC13O2
[out] TRUE

[in] Recorded test outcome, item O=C(Cn1c2ccccc2c2ccncc21)N/N=C\c1ccc2ccccc2c1
[out] FALSE
